Origin of measurements: patent US9149038B2

System: Wheat and Barley and weed species
Test: Post-Emergent Test III: postemergent herbicidal activity in wheat and barley, visual rating after 21 d and probit GR20/GR50/GR80/GR90 (Tables 9-13)
Format: in vivo
Conditions: VERPE bird's-eye speedwell (veronica persica); growth reduction of 90%; probit analysis
The entries below are paired with their reported GR90 VERPE.
Response body: numeric value in g ai/ha, unit text excluded.

- smiles: "Nc1c(F)c(-c2cc3c(cc2F)OC(F)(F)O3)nc(C(=O)O)c1Cl"
  GR90 VERPE [g ai/ha]: 37
- smiles: "COC(=O)c1nc(-c2ccc(Br)c3c2OC(F)(F)O3)c(F)c(N)c1Cl"
  GR90 VERPE [g ai/ha]: 119

Ask: Look up GR90 VERPE for this compound: Nc1c(F)c(-c2ccc3c(c2F)OC(F)(F)O3)nc(C(=O)O)c1Cl
Reply: 65

###

Tested on: Wheat and Barley and weed species
Experiment: Post-Emergent Test III: postemergent herbicidal activity in wheat and barley, visual rating after 21 d and probit GR20/GR50/GR80/GR90 (Tables 9-13)
Assay type: in vivo
Settings: VERPE bird's-eye speedwell (veronica persica); 17.5 g ai/ha
measurement.label: Visual Growth Reduction (%) 21 Days After Application VERPE

- compound: "Nc1c(F)c(-c2ccc(Cl)c3c2OC(F)(F)O3)nc(C(=O)O)c1Cl [Compound 82]"
  test.system: "Wheat and Barley and weed species"
  readout.value: "G (0-29)"
- compound: "COC(=O)c1nc(-c2ccc(Br)c3c2OC(F)(F)O3)c(F)c(N)c1Cl [Compound 78]"
  test.system: "Wheat and Barley and weed species"
  readout.value: "G (0-29)"

###

Test system: Wheat and Barley and weed species
Assay: Post-Emergent Test III: postemergent herbicidal activity in wheat and barley, visual rating after 21 d and probit GR20/GR50/GR80/GR90 (Tables 9-13)
Assay type: in vivo
Conditions: post-emergence, 504 h; LOLSS ryegrass; 70 g ai/ha; read-out: Visual Growth Reduction (%) 21 Days After Application LOLSS
Description: Herbicidal evaluations were made visually on a scale of 0 to 100 where 0 represents no activity and 100 represents complete plant death. […] A weighed amount, determined by the highest rate to be tested, of each test compound was placed in a 25 mL glass vial and was dissolved in 4 mL of a 97:3 v/v mixture of acetone and DMSO to obtain concentrated stock solutions. […]
As shown below, each of these compounds has a reported pest or weed control at 70 g/ha value.

- compound: "COC(=O)c1nc(-c2ccc3c(c2F)OC(F)(F)O3)c(F)c(N)c1Cl [Compound 10]"
  test.system: "Wheat and Barley and weed species"
  pest or weed control at 70 g/ha: "30 to 44%"
- compound: "Nc1c(F)c(-c2cc3c(cc2F)OC(F)(F)O3)nc(C(=O)O)c1Cl [Compound 13]"
  test.system: "Wheat and Barley and weed species"
  pest or weed control at 70 g/ha: "0 to 29%"
- compound: "COC(=O)c1nc(-c2cc3c(cc2F)OC(F)(F)O3)cc(N)c1Cl [Compound 32]"
  test.system: "Wheat and Barley and weed species"
  pest or weed control at 70 g/ha: "60 to 74%"

Now look at this entry.
Ask: Item: Nc1cc(-c2cc3c(cc2F)OC(F)(F)O3)nc(C(=O)O)c1Cl [Compound 42] Test system: Wheat and Barley and weed species Read-out: pest or weed control at 70 g/ha Value: ?
Reply: 60 to 74%
